experiment: Selectivity index, ratio of GIC50 for mouse RAW264.7 cells to MIC for Mycobacterium tuberculosis H37Rv; assay type: toxicity; conditions: read-out: Selectivity Index
Mark Y only when selectivity ratio stays strictly below 4. Values equal to the cut-off are N.

Problem: For the compound CC(=O)Nc1ccc(-c2csc(C(=O)Nc3cc(C(=O)Nc4cc(C(=O)NCCCN(C)C)n(C)c4)n(C)c3)c2)cc1 , is selectivity ratio under 4?
Y

Problem: For the compound CO[C@H]1/C=C/O[C@@]2(C)Oc3c(C)c(O)c4c(O)c(c(/C=N/N5CCN(C)CC5)c(O)c4c3C2=O)NC(=O)/C(C)=C\C=C\[C@H](C)[C@H](O)[C@@H](C)[C@@H](O)[C@@H](C)[C@H](OC(C)=O)[C@@H]1C , is selectivity ratio under 4?
N

Problem: For the compound CC(=O)Nc1ccc(-c2ccc(C(=O)Nc3cc(C(=O)Nc4cc(C(=O)NCCCN(C)C)n(C)c4)n(C)c3)o2)cc1 , is selectivity ratio under 4?
Y

Problem: For the compound NNC(=O)c1ccncc1 , is selectivity ratio under 4?
N

Problem: For the compound Cc1nc(-c2cnn(C)c2)sc1C(=O)Nc1cc(C(=O)Nc2cc(C(=O)NCCCN(C)C)n(C)c2)n(C)c1 , is selectivity ratio under 4?
N

Problem: For the compound Cn1cc(NC(=O)c2cc(NC(=O)c3cc(NC=O)cn3C)cn2C)cc1C(=O)NCCC(=N)N , is selectivity ratio under 4?
Y

Problem: For the compound Cc1nc(-c2ccsc2)sc1C(=O)Nc1cc(C(=O)Nc2cc(C(=O)NCCCN(C)C)n(C)c2)n(C)c1 , is selectivity ratio under 4?
Y

###

Record form. Attribute: GI50. Fill in for each entry.
assay: Cytotoxicity against mouse RAW264.7 cells; type: cell-based
State the answer as a number, implicitly in µg/mL.

Requested read-out: GI50. Entry: CO[C@H]1/C=C/O[C@@]2(C)Oc3c(C)c(O)c4c(O)c(c(/C=N/N5CCN(C)CC5)c(O)c4c3C2=O)NC(=O)/C(C)=C\C=C\[C@H](C)[C@H](O)[C@@H](C)[C@@H](O)[C@@H](C)[C@H](OC(C)=O)[C@@H]1C [RIFAMPIN]
700

Requested read-out: GI50. Entry: CC(=O)Nc1ccc(-c2cc(C(=O)Nc3cc(C(=O)Nc4cc(C(=O)NCCCN(C)C)n(C)c4)n(C)c3)n(C)c2)cc1
500

Requested read-out: GI50. Entry: Cc1nc(-c2cnn(C)c2)sc1C(=O)Nc1cc(C(=O)Nc2cc(C(=O)NCCCN(C)C)n(C)c2)n(C)c1
250

###

experiment: Cytotoxicity against mouse RAW264.7 cells; format: cell-based
Record form. Attribute: GI50. Fill in for each entry.
State the answer as a number, implicitly in µg/mL.

Requested read-out: GI50. Entry: Cc1nc(-c2ccsc2)sc1C(=O)Nc1cc(C(=O)Nc2cc(C(=O)NCCCN(C)C)n(C)c2)n(C)c1
62.5

Requested read-out: GI50. Entry: Cn1cc(NC(=O)c2cc(NC(=O)c3cc(NC=O)cn3C)cn2C)cc1C(=O)NCCC(=N)N
62.5

Requested read-out: GI50. Entry: CC(=O)Nc1cccc(-c2ccc(C(=O)Nc3cc(C(=O)Nc4cc(C(=O)NCCCN(C)C)n(C)c4)n(C)c3)o2)c1
500

Requested read-out: GI50. Entry: CC(=O)Nc1ccc(-c2csc(C(=O)Nc3cc(C(=O)Nc4cc(C(=O)NCCCN(C)C)n(C)c4)n(C)c3)c2)cc1
62.5

Requested read-out: GI50. Entry: NNC(=O)c1ccncc1
3000

Requested read-out: GI50. Entry: CC(=O)Nc1ccc(-c2ccc(C(=O)Nc3cc(C(=O)Nc4cc(C(=O)NCCCN(C)C)n(C)c4)n(C)c3)o2)cc1
250
